Test system: 323965-272-R-J2-PDC complex spheroid viability
procedure.summary: Anticancer human tumor 323965-272-R-J2-PDC patient-derived pancreatic carcinoma cell line growth inhibition [CLK]
details: second compound 0.1 µM; first compound 0.1 µM; hits give low values
Assign labels as follows, please: class 1 for viability, T/C below 70%; class 0 for viability, T/C equal to or exceeding 70%.

| molecule | category.label |
| --- | --- |
| O=C(c1cc(Cc2n[nH]c(=O)c3ccccc23)ccc1F)N1CCN(C(=O)C2CC2)CC1 + CN1CCN(c2cc(C(=O)Nc3cc4cc(-c5cnn(C)c5)ccc4cn3)ccn2)CC1 | class 0 |
| CCN1CCN(Cc2ccc(Nc3ncc(F)c(-c4cc(F)c5nc(C)n(C(C)C)c5c4)n3)nc2)CC1 + CNC(=O)c1ccc(Nc2nc(OC3CCCC3)c3c(-c4ccc5nc(C)oc5c4)c[nH]c3n2)c(OC)c1 | class 1 |
| Nc1ccn(C2OC(CO)C(O)C2(F)F)c(=O)n1 (stereo unspecified) + CNC(=O)c1ccc(Nc2nc(OC3CCCC3)c3c(-c4ccc5nc(C)oc5c4)c[nH]c3n2)c(OC)c1 | class 1 |
| Cn1ncnc1[C@H]1c2n[nH]c(=O)c3cc(F)cc(c23)N[C@@H]1c1ccc(F)cc1 + CN1CCN(c2cc(C(=O)Nc3cc4cc(-c5cnn(C)c5)ccc4cn3)ccn2)CC1 | class 1 |

Moving on to the next molecule.
q: Consider the molecule C=CC(=O)N1CCN(c2nc(=O)n(-c3c(C)ccnc3C(C)C)c3nc(-c4c(O)cccc4F)c(F)cc23)C(C)C1 (stereo unspecified) + CN1CCN(c2cc(C(=O)Nc3cc4cc(-c5cnn(C)c5)ccc4cn3)ccn2)CC1 . Is its viability, T/C strictly less than 70%?
a: class 1

====

System: 323965-272-R-J2-PDC complex spheroid viability
procedure.summary: Anticancer human tumor 323965-272-R-J2-PDC cell line growth inhibition [CLK]; active = viability on the fitted dose curve at most 10% of control; inactive = the rest;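 note: spheroids exposed to agents for seven days before readout; percent of DMSO vehicle control wells so 100% = untreated growth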
details: second compound 3.16 µM; first compound 0.00316 µM
Thanks in advance; please answer with one of these: active, inactive

Examples from the recorded data:
| molecule | category.label |
| --- | --- |
| Cn1ncnc1[C@H]1c2n[nH]c(=O)c3cc(F)cc(c23)N[C@@H]1c1ccc(F)cc1 + CNC(=O)c1ccc(Nc2nc(OC3CCCC3)c3c(-c4ccc5nc(C)oc5c4)c[nH]c3n2)c(OC)c1 | inactive |
| Cn1ncnc1[C@H]1c2n[nH]c(=O)c3cc(F)cc(c23)N[C@@H]1c1ccc(F)cc1 + CN1CCN(c2cc(C(=O)Nc3cc4cc(-c5cnn(C)c5)ccc4cn3)ccn2)CC1 | active |

Consider the record given below.
q: In this assay, the call recorded for CCc1c2c(nc3ccc(O)cc13)-c1cc3c(c(=O)n1C2)COC(=O)[C@]3(O)CC + CN1CCN(c2cc(C(=O)Nc3cc4cc(-c5cnn(C)c5)ccc4cn3)ccn2)CC1 was what?
a: active

====

Tested on: 323965-272-R-J2-PDC complex spheroid viability
procedure.summary: Anticancer human tumor 323965-272-R-J2-PDC cell line growth inhibition [CLK]; active = viability on the fitted dose curve at most 10% of control; inactive = the rest;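 note: spheroids exposed to agents for seven days before readout; percent of DMSO vehicle control wells so 100% = untreated growth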
details: second compound 1 µM; first compound 0.0316 µM
Answer with one of the outcomes given here: 1 (active), 0 (inactive)

Worked examples follow.
| molecule | category.label |
| --- | --- |
| CCCS(=O)(=O)Nc1ccc(F)c(C(=O)c2c[nH]c3ncc(-c4ccc(Cl)cc4)cc23)c1F + CNC(=O)c1ccc(Nc2nc(OC3CCCC3)c3c(-c4ccc5nc(C)oc5c4)c[nH]c3n2)c(OC)c1 | 0 |
| CC(=O)O[C@H]1C(=O)[C@@]2(C)[C@H]([C@H](OC(=O)c3ccccc3)[C@]3(O)C[C@H](OC(=O)[C@H](O)[C@@H](NC(=O)c4ccccc4)c4ccccc4)C(C)=C1C3(C)C)[C@]1(OC(C)=O)CO[C@@H]1C[C@@H]2O + CN1CCN(c2cc(C(=O)Nc3cc4cc(-c5cnn(C)c5)ccc4cn3)ccn2)CC1 | 1 |
| CC1(C)CCC(CN2CCN(c3ccc(C(=O)NS(=O)(=O)c4ccc(NCC5CCOCC5)c([N+](=O)[O-])c4)c(Oc4cnc5[nH]ccc5c4)c3)CC2)=C(c2ccc(Cl)cc2)C1 + CNC(=O)c1ccc(Nc2nc(OC3CCCC3)c3c(-c4ccc5nc(C)oc5c4)c[nH]c3n2)c(OC)c1 | 0 |

q: Answer briefly: the call reported for CCc1c2c(nc3ccc(O)cc13)-c1cc3c(c(=O)n1C2)COC(=O)[C@]3(O)CC + CN1CCN(c2cc(C(=O)Nc3cc4cc(-c5cnn(C)c5)ccc4cn3)ccn2)CC1 in this assay.
a: 1

q: Again, but for CCc1c2c(nc3ccc(O)cc13)-c1cc3c(c(=O)n1C2)COC(=O)[C@]3(O)CC + CNC(=O)c1ccc(Nc2nc(OC3CCCC3)c3c(-c4ccc5nc(C)oc5c4)c[nH]c3n2)c(OC)c1
a: 0

====

Test system: 323965-272-R-J2-PDC complex spheroid viability
procedure.summary: Anticancer human tumor 323965-272-R-J2-PDC cell line growth inhibition [CLK];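 note: spheroids exposed to agents for seven days before readout; percent of DMSO vehicle control wells so 100% = untreated growth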
details: second compound 0.316 µM; first compound 0.0316 µM; hits give low values
measured.endpoint: viability, T/C (%)
# unit: % | format: bare number

| compound | assay.value |
| --- | --- |
| COc1ccc([C@@H](O)c2cc(-c3ncnc4cc(N5CCOCC5)ccc34)c(F)cc2Cl)nn1 + CN1CCN(c2cc(C(=O)Nc3cc4cc(-c5cnn(C)c5)ccc4cn3)ccn2)CC1 | 21.9 |
| CC1(C)CCC(CN2CCN(c3ccc(C(=O)NS(=O)(=O)c4ccc(NCC5CCOCC5)c([N+](=O)[O-])c4)c(Oc4cnc5[nH]ccc5c4)c3)CC2)=C(c2ccc(Cl)cc2)C1 + CNC(=O)c1ccc(Nc2nc(OC3CCCC3)c3c(-c4ccc5nc(C)oc5c4)c[nH]c3n2)c(OC)c1 | 67.7 |
| CC1(C)CCC(CN2CCN(c3ccc(C(=O)NS(=O)(=O)c4ccc(NCC5CCOCC5)c([N+](=O)[O-])c4)c(Oc4cnc5[nH]ccc5c4)c3)CC2)=C(c2ccc(Cl)cc2)C1 + CN1CCN(c2cc(C(=O)Nc3cc4cc(-c5cnn(C)c5)ccc4cn3)ccn2)CC1 | 27.8 |

Now let's try a different one.
q: Tell me the measured viability, T/C of CCc1c2c(nc3ccc(O)cc13)-c1cc3c(c(=O)n1C2)COC(=O)[C@]3(O)CC + CNC(=O)c1ccc(Nc2nc(OC3CCCC3)c3c(-c4ccc5nc(C)oc5c4)c[nH]c3n2)c(OC)c1 , please.
a: 30

====

Tested on: 323965-272-R-J2-PDC complex spheroid viability
procedure.summary: Anticancer human tumor 323965-272-R-J2-PDC cell line growth inhibition [CLK];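 note: spheroids exposed to agents for seven days before readout; percent of DMSO vehicle control wells so 100% = untreated growth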
details: second compound 0.1 µM; first compound 0.1 µM; hits give low values
Text: A high-throughput screen of multi-cell type tumor spheroids was designed to identify active combinations of […] and targeted small molecules. Complex spheroids include a stromal component modeled by human endothelial cells (HUVEC) and fibroblasts modeled by human mesenchymal stem cells (MSCs). […] Compounds. […] If the clinical Cmax for an agent had not been determined, the highest concentration tested was 10 microM. […]
Measured viability, T/C accompanies every entry in the list below.
Please reply with the bare figure in % and do not write the unit itself.

For orientation, consider the following solved cases.
| compound | experimental.system | measurement.unit | assay.value |
| --- | --- | --- | --- |
| CC(CO)NC(=O)c1cc(-c2ccc(Cl)cc2)nn(-c2cnn(C)c2)c1=O (centres undefined) + CNC(=O)c1ccc(Nc2nc(OC3CCCC3)c3c(-c4ccc5nc(C)oc5c4)c[nH]c3n2)c(OC)c1 | 323965-272-R-J2-PDC complex spheroid viability | % | 80.5 |
| Nc1ccccc1NC(=O)c1ccc(CNC(=O)OCc2cccnc2)cc1 + CNC(=O)c1ccc(Nc2nc(OC3CCCC3)c3c(-c4ccc5nc(C)oc5c4)c[nH]c3n2)c(OC)c1 | 323965-272-R-J2-PDC complex spheroid viability | % | 89 |
| CCCS(=O)(=O)Nc1ccc(F)c(C(=O)c2c[nH]c3ncc(-c4ccc(Cl)cc4)cc23)c1F + CNC(=O)c1ccc(Nc2nc(OC3CCCC3)c3c(-c4ccc5nc(C)oc5c4)c[nH]c3n2)c(OC)c1 | 323965-272-R-J2-PDC complex spheroid viability | % | 88.2 |
| Cn1ncnc1[C@H]1c2n[nH]c(=O)c3cc(F)cc(c23)N[C@@H]1c1ccc(F)cc1 + CNC(=O)c1ccc(Nc2nc(OC3CCCC3)c3c(-c4ccc5nc(C)oc5c4)c[nH]c3n2)c(OC)c1 | 323965-272-R-J2-PDC complex spheroid viability | % | 66 |
| COc1ccc([C@@H](O)c2cc(-c3ncnc4cc(N5CCOCC5)ccc34)c(F)cc2Cl)nn1 + CNC(=O)c1ccc(Nc2nc(OC3CCCC3)c3c(-c4ccc5nc(C)oc5c4)c[nH]c3n2)c(OC)c1 | 323965-272-R-J2-PDC complex spheroid viability | % | 79.9 |

q: Quick one: viability, T/C for COc1ccc([C@@H](O)c2cc(-c3ncnc4cc(N5CCOCC5)ccc34)c(F)cc2Cl)nn1 + CN1CCN(c2cc(C(=O)Nc3cc4cc(-c5cnn(C)c5)ccc4cn3)ccn2)CC1 ?
a: 80.3

q: COC1C=CCC(C)C(C)S(=O)(=O)NC(=O)c2ccc3c(c2)N(CC2CCC21)CC1(CCCc2cc(Cl)ccc21)CO3 (centres undefined) + CNC(=O)c1ccc(Nc2nc(OC3CCCC3)c3c(-c4ccc5nc(C)oc5c4)c[nH]c3n2)c(OC)c1 , same question.
a: 86.5

q: What do you have for CC1(C)CCC(CN2CCN(c3ccc(C(=O)NS(=O)(=O)c4ccc(NCC5CCOCC5)c([N+](=O)[O-])c4)c(Oc4cnc5[nH]ccc5c4)c3)CC2)=C(c2ccc(Cl)cc2)C1 + CN1CCN(c2cc(C(=O)Nc3cc4cc(-c5cnn(C)c5)ccc4cn3)ccn2)CC1 ?
a: 63.8

q: Another: CC(CO)NC(=O)c1cc(-c2ccc(Cl)cc2)nn(-c2cnn(C)c2)c1=O (centres undefined) + CN1CCN(c2cc(C(=O)Nc3cc4cc(-c5cnn(C)c5)ccc4cn3)ccn2)CC1
a: 80.5

All values here come from PubChem BioAssay AID2060619.
